Test system: MS2 coat protein
ASSAY COMMENT: apparent KD of MS2 coat protein; designed switch direction (-1 OFF switch, 1 ON switch): -1; higher = weaker reporter binding
MEASUREMENT SETUP: Eterna round: R95; input ligand: microRNA oligo, concentration not stated
EXPERIMENTAL READOUT: apparent KD of MS2 coat protein (nM)
Write the number in nM without appending the unit.

Sample records with apparent KD of MS2 coat protein:
GGUUGGCGAGGAUAUACAUGAGGAUCACCCAUGUGAGAAAAUAAGUGAGGAAAGAAAAGUAGAAGGCGCUGACG [Mat - Exclusion 3 - Mod of Salish D53] (puzzle: Exclusion 3)    55.8
UAAAAGGUAGGAUAUACGAAAAAAAAGGGUAGAAAAAAAACACAUGAGGAUCACCCAUGUAGAAGGACCAAAAA [salish99_ex2_r3_049] (puzzle: Exclusion 2)    38.4
GCCAGAGCAGGAUAUUGAUAAAUUCACAUGAGGAUCACCCAUGUCCAGCGAAAGCUGGAACGAGAAGGGCUCUGGC [Mat - Exclusion 5 - Eli mod - D87] (puzzle: Exclusion 5)    13.3
UAUUAACAGGCAAGAUCCCACAUGAGGAUCACCCAUGUGCUCGUCUUAUAAGGUACUGUGACGAAAGUCACGGUACC [Sensor 3, v1 - 82] (puzzle: Sensor v3, turn-off variant 1)    589

// lookup apparent KD of MS2 coat protein for CUGAUGUUAGGAUAUCAGGCACCCGCCACUGGCAGGGCGCAUGAGAAGGGACAUGAGGAUCACCCAUGUAGUAA [Gelaoren] (puzzle: Exclusion 4)
21.3

----------
Tested on: MS2 coat protein
ASSAY COMMENT: apparent KD of MS2 coat protein; designed switch direction (-1 OFF switch, 1 ON switch): -1; higher = weaker reporter binding
MEASUREMENT SETUP: Eterna round: R95; input ligand: microRNA oligo, concentration not stated
Mark condition met for reported apparent KD of MS2 coat protein of 40 nM or greater; mark condition not met for anything smaller.

Examples from the recorded data:
CAACUGUGAGGAUAUGGUGAGUAGUGCCUGAGCGCUGCUCACCAGAAGGCACAUGAGGAUCACCCAUGUAUGAC [JL-ex4-2.02 denovo] (puzzle: Exclusion 4)    condition not met
AAAAGAGUAGGAUAUCUGACGCGAAACAUGAGGAUCACCCAUGUAGGGCGGUCCUGCUUAAGAGAAGGGCUCUAAU [Arorxebile] (puzzle: Exclusion 5)    condition met
UACCGGCGGACCGAGGCUUUUUGCUCGUCUUGUACUACAACAUGAGGAUCACCCAUGUGGUGGUGGUCCGUUGUAGU [JL ViennaUCT Bitein mod 6] (puzzle: Sensor v3, turn-off variant 2)    condition not met

Has AAAUACAAGUAAAGAUCCUACAUGAGGAUCACCCAUGUGCUCGUCUUGUAAAGUACUAUCACGAAAGUGAUAGUACU [Mat - Sensor v3 - turn-off var 1 - Eli Mod - D87] (puzzle: Sensor v3, turn-off variant 1) a recorded apparent KD of MS2 coat protein greater than or equal to 40 nM?
condition not met

Try the sequence GGUGGACAUGAGGAUCACCCAUGUGAGGAUAUCGGCCGGUUCGUGGUGGCUGGCUUCUCGAGAAGGCGCAUAGU [Exclusion 1 V74] (puzzle: Exclusion 1)
condition met

Try the sequence AGAAAGGAAGGAUAUACAAGAAAGCCGGGCAACGUCUCAGAACAUGAGGAUCACCCAUGUAGAAGGUCCAGGAA [Tisoiste] (puzzle: Exclusion 2)
condition not met

Try the sequence GGGUGUCCAGUGAGGAUAUCCAACGCUAAGGCGCAGGAGAAGGCACAUGAGGAUCACCCAUGUAGCUGAAGAAA [Onerbegeso] (puzzle: Brourd's mod of Exclusion 4)
condition not met

Try the sequence AAUGCGAGUGUUAGGAUAUACAAGGAUCCAUAUUUGUAGAAGGAACAUGAGGAUCACCCAUGUAAGGGAAUAAA [Enususxebe] (puzzle: Brourd's mod of Exclusion 4)
condition met

Try the sequence GUCAUGUAAGGAUAUCUUACAUGUGACUUCGGUCACUGUCAAGAGAAGGUACAUGAGGAUCACCCAUGUUCGAC [Ex4-3: 52] (puzzle: Exclusion 4)
condition not met

Try the sequence AAUUUACAUGAGGAUCACCCAUGUCAGGAUAUGGUUUUAUUUUUUUCUUUUUUUGAUUCCAGAAGGGACAGUUA (puzzle: Exclusion 1)
condition met

Try the sequence UGAAUGUGAGGAUAUGGUGAGUAGUGCCUGAGCGCUGCUCACCAGAAGGCACAUGAGGAUCACCCAUGUACUUG [JL-ex4-2.07 denovo] (puzzle: Exclusion 4)
condition met
